Biological target: T1, human BCMA protein (human, UniProt Q02223 1-54, limits assumed)
T1 sequence: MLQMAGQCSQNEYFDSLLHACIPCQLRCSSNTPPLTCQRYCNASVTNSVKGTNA
Assay: affinity to human BCMA protein, method not stated
Kd listing for selected binders.
Write it as a number; the unit nM goes unstated.

Reference set, count: 7
binder: BCMA targeting trispecific protein 01D04 (other, trispecific; not shown: anti-albumin domain, anti-CD3 domain and the linkers of the trispecific (TriTAC) chain; the C-terminal 6xHis tag follows these missing domains and is left out) VHH: EVQLVESGGGLVQPGRSLTLSCAASTNITSISPMGWYRQAPGKQRELVAAIHGVSTLYADSVKGRFTISRDNAKNSIYLQMNSLRPEDTALYYCNKVPWGDYHPRNVQWGQGTQVTVSS
Kd [nM]: 18.9
//
binder: BCMA targeting trispecific protein 02C01 (other, trispecific; not shown: anti-albumin domain, anti-CD3 domain and the linkers of the trispecific; the C-terminal His6 that follows them is left out) VHH: EVQLVESGGGLVQPGRSLTLSCAASTNIISISPMGWYRQAPGKQRELVAAIHGASTLYADSVKGRFTISRDNAKNSIYLQMNSLRPEDTALYYCNKVPWGDYHPGNVYWGQGTQVTVSS
Kd [nM]: 5.31
//
binder: BCMA targeting trispecific protein 02F04 (other, not shown: large carriers; small tags and cut ends, trispecific; also called 02F04 TriTAC) VHH: EVQLVESGGGLVQPGRSLTLSCAASTNIFSSSPMGWYRQAPGKQRELVAAIHGFSTLYADSVKGRFTISRDNAKNSIYLQMNSLRPEDTALYYCNKVPWGDYHPGNVYWGQGTQVTVSS
Kd [nM]: 6.75
//
binder: BCMA targeting trispecific protein 02G02 (other, trispecific; also called 02G02 TriTAC; not shown: anti-albumin domain, anti-CD3 domain and the linkers of the trispecific (TriTAC) format) VHH: EVQLVESGGGLVQPGRSLTLSCAASTNIFSITPMGWYRQAPGKQRELVAAIHGASTLYADSVKGRFTISRDNAKNSIYLQMNSLRPEDTALYYCNKVPWGDYHPGNVYWGQGTQVTVSS
Kd [nM]: 5.26
//
binder: BCMA targeting trispecific protein 01A01 (other, not shown: large carriers; small tags and cut ends, trispecific) VHH: EVQLVESGGGLVQPGRSLTLSCAASTDIFSISPMGWYRQAPGKQRELVAAIHGGSTLYADSVKGRFTISRDNAKNSIYLQMNSLRPEDTALYYCNKVPWGDYHPRNVAWGQGTQVTVSS
Kd [nM]: 21.3
//
binder: BCMA targeting trispecific protein 01D05 (other, trispecific; not shown: anti-albumin domain, anti-CD3 domain and the linkers of the trispecific (TriTAC) chain; the C-terminal 6xHis tag follows these missing domains and is left out) VHH: EVQLVESGGGLVQPGRSLTLSCAASTNIFSDSPMGWYRQAPGKQRELVAAIHGTSTLYADSVKGRFTISRDNAKNSIYLQMNSLRPEDTALYYCNKVPWGDYHPRNVYWGQGTQVTVSS
Kd [nM]: 17.8
//
binder: BCMA targeting trispecific protein 02F03 (other, not shown: large carriers; small tags and cut ends, trispecific) VHH: EVQLVESGGGLVQPGRSLTLSCAASTNIFSIYPMGWYRQAPGKQRELVAAIHGSSTLYADSVKGRFTISRDNAKNSIYLQMNSLRPEDTALYYCNKVPWGDYHPKNVYWGQGTQVTVSS
Kd [nM]: 25.7

In the following, a different binder is considered.
Given BCMA targeting trispecific protein 02A11 (other, trispecific; also called 02All; not shown: the C-terminal 6xHis tag follows those domains and is left out) VHH: EVQLVESGGGLVQPGRSLTLSCAASTNHFSISPMGWYRQAPGKQRELVAAIHGSSTLYADSVKGRFTISRDNAKNSIYLQMNSLRPEDTALYYCNKVPWGDYHPRVVYWGQGTQVTVSS , respond with its Kd.
25.2
